target: UniProt P09917; test: Inhibition of 5-LOX (unknown origin) using arachidonic acid as substrate at 1 uM after 5 mins by EIA
Sequence (P09917 whole entry): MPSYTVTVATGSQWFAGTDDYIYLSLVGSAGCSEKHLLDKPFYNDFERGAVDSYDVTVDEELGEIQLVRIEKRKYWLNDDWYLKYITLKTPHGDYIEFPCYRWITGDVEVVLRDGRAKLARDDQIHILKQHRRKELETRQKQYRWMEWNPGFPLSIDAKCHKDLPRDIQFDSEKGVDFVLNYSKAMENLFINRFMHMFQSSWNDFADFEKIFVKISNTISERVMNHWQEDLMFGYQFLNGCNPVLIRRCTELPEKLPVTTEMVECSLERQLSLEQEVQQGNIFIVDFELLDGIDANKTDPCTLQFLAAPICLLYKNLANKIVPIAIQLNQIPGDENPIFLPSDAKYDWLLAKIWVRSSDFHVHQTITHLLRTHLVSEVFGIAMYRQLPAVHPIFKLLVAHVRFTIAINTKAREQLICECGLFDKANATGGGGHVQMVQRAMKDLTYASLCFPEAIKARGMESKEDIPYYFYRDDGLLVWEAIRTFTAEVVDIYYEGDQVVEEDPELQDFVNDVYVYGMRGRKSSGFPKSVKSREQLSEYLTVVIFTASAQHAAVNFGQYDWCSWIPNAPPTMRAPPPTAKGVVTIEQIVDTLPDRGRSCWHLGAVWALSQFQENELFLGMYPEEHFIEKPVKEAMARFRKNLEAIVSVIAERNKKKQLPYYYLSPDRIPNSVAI
MEASURE: inhibition (%)
I only need the number, in %, no unit after it.

Sample answers from the record:
STRUCTURE SMILES STRING	inhibition, %
COC(=O)[C@H]1CCCN1C(=O)C(=O)c1cn(S(=O)(=O)c2ccc(C)cc2)c2ccccc12	54.5
Cc1ccc(S(=O)(=O)n2cc(C(=O)C(=O)NCC(=O)O)c3ccccc32)cc1	78.4
COC(=O)[C@H]1CCCN1C(=O)C(=O)c1c[nH]c2ccccc12	40.2
COC(=O)CNC(=O)C(=O)c1c[nH]c2ccccc12	47.8
COC(=O)[C@@H](Cc1c[nH]c2ccccc12)NC(=O)C(=O)c1cn(S(=O)(=O)c2ccc(C)cc2)c2ccccc12	62.7
COC(=O)[C@@H](Cc1cnc[nH]1)NC(=O)C(=O)c1cn(S(=O)(=O)c2ccc(C)cc2)c2ccccc12	45.3

Q: Which inhibition value is on record for `Cc1ccc(S(=O)(=O)n2cc(C(=O)C(=O)N[C@H](Cc3cnc[nH]3)C(=O)O)c3ccccc32)cc1` ?
Result: 48.7
